Origin of the recorded values: the supplement of paper PMC10567573

B1: ANKRD40 (parent)
chain: YQELLRVCCCELGVNPDQVEKIRK

variants of: B1; assay: protein stability index of a GFP-peptide fusion (GPS, HEK-293T) (PSI 1-6); higher = more stable; conditions: c terminus: a fixed tail appended;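 also: lentivirally expressed fusions sorted by FACS into six bins by GFP to DsRed ratio, PSI derived from sequencing read proportions per bin multiplied by bin number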
METRIC: protein stability index

[
  {
    "SEQUENCE_CHANGE": "Q2I",
    "METRIC": "protein stability index",
    "EXPERIMENTAL_RESULT": 1.73
  },
  {
    "SEQUENCE_CHANGE": "I22Y",
    "METRIC": "protein stability index",
    "EXPERIMENTAL_RESULT": 2.57
  },
  {
    "SEQUENCE_CHANGE": "D17G",
    "METRIC": "protein stability index",
    "EXPERIMENTAL_RESULT": 2.42
  },
  {
    "SEQUENCE_CHANGE": "C8A",
    "METRIC": "protein stability index",
    "EXPERIMENTAL_RESULT": 3.16
  },
  {
    "SEQUENCE_CHANGE": "R23K",
    "METRIC": "protein stability index",
    "EXPERIMENTAL_RESULT": 1.25
  },
  {
    "SEQUENCE_CHANGE": "D17M",
    "METRIC": "protein stability index",
    "EXPERIMENTAL_RESULT": 1.56
  },
  {
    "SEQUENCE_CHANGE": "L4C",
    "METRIC": "protein stability index",
    "EXPERIMENTAL_RESULT": 2.15
  },
  {
    "SEQUENCE_CHANGE": "C9K",
    "METRIC": "protein stability index",
    "EXPERIMENTAL_RESULT": 2.23
  },
  {
    "SEQUENCE_CHANGE": "R6T",
    "METRIC": "protein stability index",
    "EXPERIMENTAL_RESULT": 1.54
  },
  {
    "SEQUENCE_CHANGE": "R23A",
    "METRIC": "protein stability index",
    "EXPERIMENTAL_RESULT": 1.91
  },
  {
    "SEQUENCE_CHANGE": "L4H",
    "METRIC": "protein stability index",
    "EXPERIMENTAL_RESULT": 3
  },
  {
    "SEQUENCE_CHANGE": "P16E",
    "METRIC": "protein stability index",
    "EXPERIMENTAL_RESULT": 2.14
  },
  {
    "SEQUENCE_CHANGE": "Q18N",
    "METRIC": "protein stability index",
    "EXPERIMENTAL_RESULT": 2.32
  },
  {
    "SEQUENCE_CHANGE": "Q2C",
    "METRIC": "protein stability index",
    "EXPERIMENTAL_RESULT": 1.64
  },
  {
    "SEQUENCE_CHANGE": "E3T",
    "METRIC": "protein stability index",
    "EXPERIMENTAL_RESULT": 2.13
  },
  {
    "SEQUENCE_CHANGE": "L5C",
    "METRIC": "protein stability index",
    "EXPERIMENTAL_RESULT": 3.06
  },
  {
    "SEQUENCE_CHANGE": "E20M",
    "METRIC": "protein stability index",
    "EXPERIMENTAL_RESULT": 1.85
  },
  {
    "SEQUENCE_CHANGE": "V7N",
    "METRIC": "protein stability index",
    "EXPERIMENTAL_RESULT": 1.96
  },
  {
    "SEQUENCE_CHANGE": "L12Q",
    "METRIC": "protein stability index",
    "EXPERIMENTAL_RESULT": 2.81
  },
  {
    "SEQUENCE_CHANGE": "L12E",
    "METRIC": "protein stability index",
    "EXPERIMENTAL_RESULT": 2.75
  }
]
